What activity score (negative = inhibition) was measured for each of the following?
target: Glycogen synthase kinase-3 beta (Homo sapiens) (UniProt P49841); assay: blockers of GSK3B enzyme activity – biochemical, cell-free homogeneous, HTS, primary screen (AID 2097); settings: GST-GSK3beta kinase, ADP-Glo luminescence, 60 min; at 10 µM; stronger effect = lower value;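 also: 0% = median DMSO wells and -100% = median GW8510 positive control wells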
Sequence (P49841 whole entry, looked up): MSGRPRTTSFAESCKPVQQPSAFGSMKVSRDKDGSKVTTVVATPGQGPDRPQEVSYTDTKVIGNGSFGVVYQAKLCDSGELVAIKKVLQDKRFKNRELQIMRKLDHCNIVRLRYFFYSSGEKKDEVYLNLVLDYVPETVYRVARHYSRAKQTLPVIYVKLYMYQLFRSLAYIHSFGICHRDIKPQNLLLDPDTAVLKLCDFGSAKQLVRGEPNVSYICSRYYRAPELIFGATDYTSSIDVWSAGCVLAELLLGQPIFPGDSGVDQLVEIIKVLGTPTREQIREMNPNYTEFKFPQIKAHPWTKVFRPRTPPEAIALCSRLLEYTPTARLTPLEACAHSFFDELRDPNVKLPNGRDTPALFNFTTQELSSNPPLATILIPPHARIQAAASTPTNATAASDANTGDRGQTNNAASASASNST
Hit rate of the full screen: of about 300,000 compounds, about 120 (0.04%) were called active. Many of the other results were omitted from the sample, so actives are more common in it than they were.
One number for each entry, in %.

Known results for compounds:
Compound: CN1CCN(/N=C2/C(=O)Nc3ccc([N+](=O)[O-])cc32)CC1
activity score (negative = inhibition) / %: -63.8
--
Compound: Cc1cccc(NC(=O)C2CC(=O)OC23CCCC3)c1 (stereo unspecified)
activity score (negative = inhibition) / %: 2.08
--
Compound: O=C(/C=C/c1cccc([N+](=O)[O-])c1)NCCSCc1ccco1
activity score (negative = inhibition) / %: -1
--
Compound: CN1CCN(/N=C/c2ccc(-c3ccc([N+](=O)[O-])cc3)o2)CC1
activity score (negative = inhibition) / %: -0.646
--
Compound: COc1ccc(C)cc1N(C)C(=O)c1coc(=O)c2ccccc12
activity score (negative = inhibition) / %: 3.14

Below: the item to evaluate.
In: Consider the compound Cc1ccc([N+](=O)[O-])cc1S(=O)(=O)N1CCCN(C)CC1 and give its measured activity score (negative = inhibition).
Out: -1.01
